Recorded residual activity for the following compounds
target: MAPKAPK2 (human); test: radiometric filter-binding kinase assay, Kinase HotSpot; conditions: compound 0.5 µM; ATP 10 µM
Kindly provide the numeric value in % only, without the unit symbol.

Could you share which residual activity value was measured for COc1ccc2c(c[n+](C)c3c4cc5c(cc4ccc23)OCO5)c1OC ?
103

residual activity for Cc1[nH]c(/C=C2\C(=O)Nc3ccc(S(=O)(=O)N(C)c4cccc(Cl)c4)cc32)c(C)c1C(=O)N1CCN(C)CC1 ?
104

Reported residual activity for O=C1Nc2ccc(Cl)cc2/C1=C/c1cc(Cl)c(O)c(Cl)c1 : what is it?
100

Name the recorded residual activity for Cc1ccc(S(=O)(=O)/C=C/C#N)cc1 .
93.7

Reported residual activity, compound Cc1ccc(NC2=CC(=O)c3sc(C)nc3C2=O)cc1 : ____
97.6

* * *

biological target: BTK (human); assay: radiometric filter-binding kinase assay, Kinase HotSpot; conditions: compound 0.5 µM; ATP 10 µM
Item-by-item account of residual activity
Respond numerically; units are % and should not be typed.

// residual activity lookup, key: CC(=O)c1ccc(N2CCOCC2)cc1O
108

---
Can you look up the measured residual activity of Cc1[nH]c(/C=C2\C(=O)Nc3ccc(S(=O)(=O)N(C)c4cccc(Cl)c4)cc32)c(C)c1C(=O)N1CCN(C)CC1 for me?
93.1

Report residual activity for Nc1ncnc2c1c(-c1ccc(Oc3ccccc3)cc1)cn2C1CCCC1 please.
4.56

Return reported residual activity; argument: CCN(CC)CCNC(=O)c1c(C)[nH]c(/C=C2\C(=O)Nc3ccc(Cl)cc32)c1C
58.3

Entry O=C1NC(=O)/C(=C/c2ccc3c(c2)OC(F)(F)O3)S1 has what residual activity?
94.3

Which residual activity value belongs to O=C1NC(=O)c2c1c1c3ccccc3n3c1c1c2c2ccccc2n1C1CCC3O1 ?
43.3

Please give the measured residual activity for this molecule: CO[C@H]1CC2CC[C@@H](C)[C@@](O)(O2)C(=O)C(=O)N2CCCC[C@H]2C(=O)OC([C@H](C)C[C@@H]2CC[C@@H](O)[C@H](OC)C2)CC(=O)[C@H](C)/C=C(\C)[C@@H](O)[C@@H](OC)C(=O)[C@H](C)C[C@H](C)/C=C/C=C/C=C/1C (stereo partly drawn)
101

Look up residual activity for this molecule: Nc1ncnc2[nH]nc(Nc3ccc(F)cc3)c12
82.3

* * *

molecular target: RPS6KA1 KD1 KD2 (human) (UniProt Q15418); experiment: radiometric filter-binding kinase assay, Kinase HotSpot; conditions: compound 0.5 µM; ATP 10 µM
Sequence (Q15418 whole entry, looked up): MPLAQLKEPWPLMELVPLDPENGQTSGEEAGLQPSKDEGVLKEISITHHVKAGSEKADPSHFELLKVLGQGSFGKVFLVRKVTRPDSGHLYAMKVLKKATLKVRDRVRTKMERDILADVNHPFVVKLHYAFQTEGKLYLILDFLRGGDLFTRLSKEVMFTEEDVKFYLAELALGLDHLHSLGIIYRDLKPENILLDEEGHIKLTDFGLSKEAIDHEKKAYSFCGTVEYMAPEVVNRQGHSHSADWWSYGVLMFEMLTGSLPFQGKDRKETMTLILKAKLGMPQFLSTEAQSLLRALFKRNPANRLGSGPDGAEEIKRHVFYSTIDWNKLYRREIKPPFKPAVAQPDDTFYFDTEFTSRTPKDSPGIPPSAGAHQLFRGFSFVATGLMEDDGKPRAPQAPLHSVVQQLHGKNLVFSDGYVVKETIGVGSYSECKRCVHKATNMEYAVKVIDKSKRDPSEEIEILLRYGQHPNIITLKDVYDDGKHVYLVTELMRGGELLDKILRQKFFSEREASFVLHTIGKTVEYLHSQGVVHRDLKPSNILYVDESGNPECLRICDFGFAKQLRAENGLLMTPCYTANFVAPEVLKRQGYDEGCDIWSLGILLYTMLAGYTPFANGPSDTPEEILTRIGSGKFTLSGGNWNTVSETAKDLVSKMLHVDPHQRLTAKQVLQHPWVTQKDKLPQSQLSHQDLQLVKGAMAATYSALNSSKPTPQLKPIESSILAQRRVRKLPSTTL
Returns criterion met if the recorded residual activity is greater than or equal to 90%, and criterion not met otherwise.

// inclusive: residual activity at least 90%? input: CO[C@H]1CC2CC[C@@H](C)[C@@](O)(O2)C(=O)C(=O)N2CCCC[C@H]2C(=O)OC([C@H](C)C[C@@H]2CC[C@@H](O)[C@H](OC)C2)CC(=O)[C@H](C)/C=C(\C)[C@@H](O)[C@@H](OC)C(=O)[C@H](C)C[C@H](C)/C=C/C=C/C=C/1C (stereo not given in full)
criterion met

Entry CCN(CC)C(=O)c1ccc(Nc2nc(OCC3CCCCC3)c3nc[nH]c3n2)cc1 : is its residual activity no less than 90%?
criterion not met

Check if residual activity >= 90% (inclusive). Item: COc1cc2ncnc(Nc3cccc(Cl)c3)c2cc1OC
criterion not met

Hi, just wondering whether CC[n+]1c(/C=C/N(C)c2ccccc2)n(-c2ccccc2)c2ccc(-c3nc4ccccc4s3)cc21 shows residual activity of 90% or higher.
criterion met

Say whether O=C1Nc2ccc(Cl)cc2/C1=C/c1cc(Cl)c(O)c(Cl)c1 shows residual activity of 90% or more.
criterion not met

Please check the record Nc1ncnc2[nH]nc(Nc3ccc(F)cc3)c12 and state if its residual activity is at or above 90%.
criterion not met

Determine whether this compound has residual activity no lower than 90%: COc1ccc2c(c[n+](C)c3c4cc5c(cc4ccc23)OCO5)c1OC
criterion met

Decide: residual activity of c1ccc(-c2n[nH]c3c2oc2ccccc23)cc1 >= 90%?
criterion met

Determine whether measured residual activity meets or exceeds 90% for Cc1[nH]c(/C=C2\C(=O)Nc3ccc(S(=O)(=O)N(C)c4cccc(Cl)c4)cc32)c(C)c1C(=O)N1CCN(C)CC1
criterion not met

Decide: is the reported value of residual activity for CNC(=O)c1cc(Oc2ccc(NC(=O)Nc3ccc(Cl)c(C(F)(F)F)c3)cc2)ccn1 equal to or greater than 90%?
criterion met

New cases:
Threshold query (residual activity >= 90%) on O=C1NC(=O)/C(=C/c2ccc3c(c2)OC(F)(F)O3)S1
criterion not met

Determine whether measured residual activity meets or exceeds 90% for O=C1NC(=O)C(c2cn(CCCn3ccnc3)c3ccccc23)=C1Nc1ccccc1
criterion not met

Is residual activity for COc1ccc(COc2ccc(Cc3cnc(N)nc3N)cc2OC)cc1 at or above 90%?
criterion met

// inclusive: residual activity at least 90%? input: N#CC(C#N)=C(N)/C(C#N)=C/c1ccc(O)cc1
criterion met

Does the reported residual activity for O=C(Nc1cccc(Nc2nccc(Nc3cccc(C(F)(F)F)c3)n2)c1)C1CC1 fall at or above the 90% mark?
criterion met

Is residual activity for CCN(CC)CCNC(=O)c1c(C)[nH]c(/C=C2\C(=O)Nc3ccc(Cl)cc32)c1C at or above 90%?
criterion not met
